# System: CYP2B6
# runDescription: In vitro cocktail CYP450 activity assay in rat liver microsomes, CYP2B6 (bupropion probe)
# runConditions: Sprague-Dawley, rat, pooled rat liver microsomes, pH 7.4, probe bupropion (90 µM, in seven-probe cocktail), IC50 CYP2B6, single components; RLM 0.2 mg/mL, 15 min, triplicate, mean ± SD
# Method: (OHBUP-[D6]) and 5 nM 4′-hydroxydiclofenac-[^13C6] (OHDIC-[^13C6]) as internal standards (ISs). […] standard addition experiments. Each group included four concentration levels. For the PK […] The probe compounds, viz. […] chosen after incubating all the recruited substrates. In order to assure the linear relationship […] The incubation system was also optimized in terms of substrate concentrations. The substrates concentrations of […]
measurementKind: IC50 at 15 min

{"columns": ["compound", "targetOrSystem", "measurementKind", "value"],
 "data": [
  ["O=c1c(O)c(-c2ccc(O)cc2)oc2cc(O)c(O)c(O)c12 [A18, 6-hydroxykaempferol]", "CYP2B6", "IC50 at 15 min", "< 5 µM"],
  ["O=c1c(O)c(-c2ccc(O)cc2)oc2cc(O)cc(O)c12", "CYP2B6", "IC50 at 15 min", "> 200 µM"],
  ["CC(C)=CCC[C@](C)(O[C@@H]1O[C@H](CO[C@@H]2O[C@H](CO)[C@@H](O)[C@H](O)[C@H]2O)[C@@H](O)[C@H](O)[C@H]1O)[C@H]1CC[C@]2(C)[C@@H]1[C@H](O)C[C@@H]1[C@@]3(C)CC[C@H](O[C@@H]4O[C@H](CO)[C@@H](O)[C@H](O)[C@H]4O[C@@H]4O[C@H](CO)[C@@H](O)[C@H](O)[C@H]4O)C(C)(C)[C@@H]3CC[C@]12C [GRb1, ginsenoside Rb1]", "CYP2B6", "IC50 at 15 min", "121 µM"],
  ["CC(C)=CCC[C@](C)(O[C@@H]1O[C@H](CO)[C@@H](O)[C@H](O)[C@H]1O)[C@H]1CC[C@]2(C)[C@@H]1[C@H](O)C[C@@H]1[C@@]3(C)CC[C@H](O[C@@H]4O[C@H](CO)[C@@H](O)[C@H](O)[C@H]4O[C@@H]4O[C@H](CO)[C@@H](O)[C@H](O)[C@H]4O)C(C)(C)[C@@H]3CC[C@]12C [GRd, ginsenoside Rd]", "CYP2B6", "IC50 at 15 min", "> 200 µM"],
  ["CC(C)=CCC[C@](C)(O[C@@H]1O[C@H](CO)[C@@H](O)[C@H](O)[C@H]1O)[C@H]1CC[C@]2(C)[C@@H]1[C@H](O)C[C@@H]1[C@@]3(C)CC[C@H](O)C(C)(C)[C@@H]3[C@@H](O[C@@H]3O[C@H](CO)[C@@H](O)[C@H](O)[C@H]3O)C[C@]12C [GRg1, ginsenoside Rg1]", "CYP2B6", "IC50 at 15 min", "11 µM"],
  ["CC(C)=CCC[C@](C)(O[C@@H]1O[C@H](CO)[C@@H](O)[C@H](O)[C@H]1O)[C@H]1CC[C@]2(C)[C@@H]1[C@H](O)C[C@@H]1[C@@]3(C)CC[C@H](O)C(C)(C)[C@@H]3[C@@H](O[C@@H]3O[C@H](CO)[C@@H](O)[C@H](O)[C@H]3O[C@@H]3O[C@@H](C)[C@H](O)[C@@H](O)[C@H]3O)C[C@]12C [GRe, ginsenoside Re]", "CYP2B6", "IC50 at 15 min", "39.4 µM"],
  ["CC(C)=CCC[C@](C)(O[C@@H]1O[C@H](CO)[C@@H](O)[C@H](O)[C@H]1O)[C@H]1CC[C@]2(C)[C@@H]1[C@H](O)C[C@@H]1[C@@]3(C)CC[C@H](O)C(C)(C)[C@@H]3[C@@H](O[C@@H]3O[C@H](CO)[C@@H](O)[C@H](O)[C@H]3O[C@@H]3OC[C@@H](O)[C@H](O)[C@H]3O)C[C@]12C [NGR1, notoginsenoside R1]", "CYP2B6", "IC50 at 15 min", "> 200 µM"]
]}

---

# runDescription: in vivo
# Set-up: species or system Sprague-Dawley (SD) rats
# runConditions: Sprague-Dawley, rat, plasma, po, 60 mg·kg^−1
measurementKind: concentration at 8 h (ng/mL)

{"columns": ["compound", "measurementKind", "value"],
 "data": [
  ["CC(C)=CCC[C@](C)(O[C@@H]1O[C@H](CO)[C@@H](O)[C@H](O)[C@H]1O)[C@H]1CC[C@]2(C)[C@@H]1[C@H](O)C[C@@H]1[C@@]3(C)CC[C@H](O)C(C)(C)[C@@H]3[C@@H](O[C@@H]3O[C@H](CO)[C@@H](O)[C@H](O)[C@H]3O[C@@H]3O[C@@H](C)[C@H](O)[C@@H](O)[C@H]3O)C[C@]12C [GRe, ginsenoside Re]", "concentration at 8 h", 0.13]
]}

---

# runDescription: in vivo
# Parameters: species or system Sprague-Dawley (SD) rats
# runConditions: Sprague-Dawley, plasma; 24 h after oral CNP, rat

{"columns": ["molecule", "concentration at 24 h (ng/mL)"],
 "data": [
  ["CC(C)=CCC[C@](C)(O[C@@H]1O[C@H](CO)[C@@H](O)[C@H](O)[C@H]1O)[C@H]1CC[C@]2(C)[C@@H]1[C@H](O)C[C@@H]1[C@@]3(C)CC[C@H](O)C(C)(C)[C@@H]3[C@@H](O[C@@H]3O[C@H](CO)[C@@H](O)[C@H](O)[C@H]3O)C[C@]12C [GRg1, ginsenoside Rg1]", 0.34],
  ["CC(C)=CCC[C@](C)(O[C@@H]1O[C@H](CO)[C@@H](O)[C@H](O)[C@H]1O)[C@H]1CC[C@]2(C)[C@@H]1[C@H](O)C[C@@H]1[C@@]3(C)CC[C@H](O[C@@H]4O[C@H](CO)[C@@H](O)[C@H](O)[C@H]4O[C@@H]4O[C@H](CO)[C@@H](O)[C@H](O)[C@H]4O)C(C)(C)[C@@H]3CC[C@]12C [GRd, ginsenoside Rd]", 2.85],
  ["CC(C)=CCC[C@](C)(O[C@@H]1O[C@H](CO[C@@H]2O[C@H](CO)[C@@H](O)[C@H](O)[C@H]2O)[C@@H](O)[C@H](O)[C@H]1O)[C@H]1CC[C@]2(C)[C@@H]1[C@H](O)C[C@@H]1[C@@]3(C)CC[C@H](O[C@@H]4O[C@H](CO)[C@@H](O)[C@H](O)[C@H]4O[C@@H]4O[C@H](CO)[C@@H](O)[C@H](O)[C@H]4O)C(C)(C)[C@@H]3CC[C@]12C [GRb1, ginsenoside Rb1]", 22.4],
  ["CC(C)=CCC[C@](C)(O[C@@H]1O[C@H](CO)[C@@H](O)[C@H](O)[C@H]1O)[C@H]1CC[C@]2(C)[C@@H]1[C@H](O)C[C@@H]1[C@@]3(C)CC[C@H](O)C(C)(C)[C@@H]3[C@@H](O[C@@H]3O[C@H](CO)[C@@H](O)[C@H](O)[C@H]3O[C@@H]3OC[C@@H](O)[C@H](O)[C@H]3O)C[C@]12C [NGR1, notoginsenoside R1]", 0.17]
]}

---

# runDescription: in vivo
# Parameters: species or system Sprague-Dawley (SD) rats
# runConditions: Sprague-Dawley, plasma; 96 h after oral CNP, rat

{"columns": ["molecule", "concentration at 96 h"],
 "data": [
  ["CC(C)=CCC[C@](C)(O[C@@H]1O[C@H](CO[C@@H]2O[C@H](CO)[C@@H](O)[C@H](O)[C@H]2O)[C@@H](O)[C@H](O)[C@H]1O)[C@H]1CC[C@]2(C)[C@@H]1[C@H](O)C[C@@H]1[C@@]3(C)CC[C@H](O[C@@H]4O[C@H](CO)[C@@H](O)[C@H](O)[C@H]4O[C@@H]4O[C@H](CO)[C@@H](O)[C@H](O)[C@H]4O)C(C)(C)[C@@H]3CC[C@]12C [GRb1, ginsenoside Rb1]", "6.43 ng/mL"]
]}

---

# runDescription: in vivo
# Parameters: species or system Sprague-Dawley (SD) rats
# runConditions: Sprague-Dawley, plasma; 0.25 h after oral CNP, rat
# Method: At each time, 0.5 mL of blood was collected in the heparin sodium tubes. Plasma was separated by centrifugation at 4000 rpm for 10 min and stored below −80 °C until bioanalysis. Oasis PRiME HLB SPE cartridges (1 cc/30 mg, Waters, Milford, MA, USA) were used to process the plasma samples (Supplementary Materials). […]

{"columns": ["compound", "concentration at 0.25 h"],
 "data": [
  ["CC(C)=CCC[C@](C)(O[C@@H]1O[C@H](CO)[C@@H](O)[C@H](O)[C@H]1O)[C@H]1CC[C@]2(C)[C@@H]1[C@H](O)C[C@@H]1[C@@]3(C)CC[C@H](O)C(C)(C)[C@@H]3[C@@H](O[C@@H]3O[C@H](CO)[C@@H](O)[C@H](O)[C@H]3O)C[C@]12C [GRg1, ginsenoside Rg1]", "0.48 ng/mL"]
]}
